// data source = ChEMBL document CHEMBL1697781

# Test system: Hepatotoxicity
# TEST_SUMMARY: FDA HLAED, alkaline phosphatase increase
# CONDITION_SET: human
MEASUREMENT_TYPE: Alkaline Phosphatase Increase - Number of Reports

Check out these entries, answers already filled in.
| COMPOUND | TESTED_SYSTEM | OBS_VALUE |
| --- | --- | --- |
| COc1c(C)c2c(c(O)c1C/C=C(\C)CCC(=O)O)C(=O)OC2 [MYCOPHENOLIC ACID] | Hepatotoxicity | < 4 |
| NC(N)=Nc1nc(CSCCC(N)=NS(N)(=O)=O)cs1 [FAMOTIDINE] | Hepatotoxicity | >= 4 |
| COC(=O)CCc1ccc(OCC(O)CNC(C)C)cc1 (stereo not drawn) [ESMOLOL] | Hepatotoxicity | < 4 |
| COc1cc([C@@H]2c3cc4c(cc3[C@@H](O[C@@H]3O[C@@H]5CO[C@@H](c6cccs6)O[C@H]5[C@H](O)[C@H]3O)[C@H]3COC(=O)[C@H]23)OCO4)cc(OC)c1O [TENIPOSIDE] | Hepatotoxicity | < 4 |
| COCCCC/C(=N\OCCN)c1ccc(C(F)(F)F)cc1 [FLUVOXAMINE] | Hepatotoxicity | >= 4 |

Dear colleague, could you send me Alkaline Phosphatase Increase - Number of Reports for each of the items below? Thanks.
1. NNC(=O)c1ccncc1 [ISONIAZID]
2. COc1cc([C@@H]2c3cc4c(cc3[C@H](O)[C@H]3COC(=O)[C@H]23)OCO4)cc(OC)c1OC [PODOFILOX]
3. C=CCN1C[C@H](C(=O)N(CCCN(C)C)C(=O)NCC)C[C@@H]2c3cccc4[nH]cc(c34)C[C@H]21 [CABERGOLINE]

1: >= 4; 2: < 4; 3: < 4

====

# Test system: Hepatotoxicity
# TEST_SUMMARY: FDA HLAED, lactate dehydrogenase (LDH) increase
# CONDITION_SET: human
I'd be grateful if you could share measured LDH Increase - Index Value for these entries.
One number for each entry.

Solved entries (count: 5):
| COMPOUND | LDH Increase - Index Value |
| --- | --- |
| Clc1ccc(COC(Cn2ccnc2)c2ccc(Cl)cc2Cl)cc1 (stereo unspecified) | 0 |
| N=C(N)NC(=O)Cc1c(Cl)cccc1Cl | 0.6 |
| COc1ccc([C@@H]2Sc3ccccc3N(CCN(C)C)C(=O)[C@@H]2OC(C)=O)cc1 | 0.1 |
| NCCCC(O)(P(=O)(O)O)P(=O)(O)O | 1.5 |
| N=C(N)NCC1COC2(CCCCC2)O1 (stereo unspecified) | 0 |

Below are some compounds; for each one, tell me its LDH Increase - Index Value.
1. Cc1ncc2n1-c1ccc(Cl)cc1C(c1ccccc1F)=NC2
2. COc1cc2nc(N3CCN(C(=O)C4COc5ccccc5O4)CC3)nc(N)c2cc1OC (stereo unspecified)

1. 0
2. 0.2

Provide the reported LDH Increase - Index Value of each entry below, same order.
1. CC(C)(C)NCC(O)COc1cccc2c1CCC(=O)N2 (stereo unspecified)
2. Nc1nc(O)c2ncn(COC(CO)CO)c2n1
3. Cc1ccc(Cl)c(Nc2ccccc2C(=O)O)c1Cl
4. CCOC(=O)[C@H](CCc1ccccc1)N[C@@H](C)C(=O)N1[C@H](C(=O)O)C[C@@H]2CCC[C@@H]21

1: 0.5; 2: 1.9; 3: 0; 4: 0.5

Provide reported LDH Increase - Index Value for each item, in the same order as listed.
1. COC(=O)C1=C(C)NC(C)=C(C(=O)OC)C1c1ccccc1[N+](=O)[O-]
2. C[C@H](CS)C(=O)N1CCC[C@H]1C(=O)O
3. COc1cc(C(=O)NS(=O)(=O)c2ccccc2C)ccc1Cc1cn(C)c2ccc(NC(=O)OC3CCCC3)cc12
4. COCCOC(=O)C1=C(C)NC(C)=C(C(=O)OC(C)C)C1c1cccc([N+](=O)[O-])c1 (stereo unspecified)

1: 0.1; 2: 0.4; 3: 3.7; 4: 23.4

Report LDH Increase - Index Value for every entry below.
1. Oc1ccc2c(c1)[C@@]13CCCC[C@@]1(O)[C@@H](C2)N(CC1CCC1)CC3
2. CCCN1C[C@H](CSC)C[C@@H]2c3cccc4[nH]cc(c34)C[C@H]21 [PERGOLIDE]
3. COc1cc([C@@H]2c3cc4c(cc3[C@@H](O[C@@H]3O[C@@H]5CO[C@@H](C)O[C@H]5[C@H](O)[C@H]3O)[C@H]3COC(=O)[C@H]23)OCO4)cc(OC)c1O [ETOPOSIDE]
4. C[N+](C)(C)C[C@H](O)CC(=O)[O-]
5. CNS(=O)(=O)Cc1ccc2[nH]cc(CCN(C)C)c2c1
6. O=C1CC2(CCCC2)CC(=O)N1CCCCN1CCN(c2ncccn2)CC1

1: 0; 2: 0; 3: 0.4; 4: 0; 5: 0.1; 6: 0.4

====

# Test system: Hepatotoxicity
# TEST_SUMMARY: FDA HLAED, gamma-glutamyl transferase (GGT) increase
# CONDITION_SET: human
MEASUREMENT_TYPE: GGT Increase - Activity Score

Consider the following illustrative entries.
| COMPOUND | GGT Increase - Activity Score |
| --- | --- |
| CC(=O)OCC(CCn1cnc2cnc(N)nc21)COC(C)=O [FAMCICLOVIR] | Inactive |
| O=C(O)[C@@H](S)[C@@H](S)C(=O)O | Active |
| Cc1cc2c(s1)Nc1ccccc1N=C2N1CCN(C)CC1 [OLANZAPINE] | Active |
| O=C1CN=C(c2ccccc2)c2cc(Cl)ccc2N1CC1CC1 [PRAZEPAM] | Inactive |

Now for a further compound.
Param item = COC1=CC(=O)C[C@@H](C)[C@]12Oc1c(Cl)c(OC)cc(OC)c1C2=O [GRISEOFULVIN] ; retrieve measured GGT Increase - Activity Score.
Active

====

# Tested on: Hepatotoxicity
# TEST_SUMMARY: FDA HLAED, serum glutamic pyruvic transaminase (SGPT) increase
# CONDITION_SET: human
MEASUREMENT_TYPE: SGPT Increase - Number of Reports

Example entries and their recorded answers appear below.
| COMPOUND | MEASUREMENT_TYPE | OBS_VALUE |
| --- | --- | --- |
| O=C1C(O)=C([C@H]2CC[C@H](c3ccc(Cl)cc3)CC2)C(=O)c2ccccc21 | SGPT Increase - Number of Reports | < 4 |
| OC[C@H]1O[C@@H](n2cnc3c2NC=NC[C@H]3O)C[C@@H]1O | SGPT Increase - Number of Reports | < 4 |
| Nc1cc(-c2ccncc2)c[nH]c1=O | SGPT Increase - Number of Reports | < 4 |
| Clc1ccc2c(c1)C(c1ccccc1)=NCc1nncn1-2 | SGPT Increase - Number of Reports | < 4 |
| COCCc1ccc(OCC(O)CNC(C)C)cc1 (stereo not given) | SGPT Increase - Number of Reports | >= 4 |

Field: SGPT Increase - Number of Reports. Fill in for each record below.
1. O=C(NCC(O)CO)c1c(I)c(C(=O)NCC(O)CO)c(I)c(N(CCO)C(=O)CO)c1I (stereo not given)
2. CCCCCCCCCCCCCCCCCC(=O)O.CC[C@H]1OC(=O)[C@H](C)[C@@H](O[C@H]2C[C@@](C)(OC)[C@@H](O)[C@H](C)O2)[C@H](C)[C@@H](O[C@@H]2O[C@H](C)C[C@H](N(C)C)[C@H]2OC(C)=O)[C@](C)(O)C[C@@H](C)C(=O)[C@H](C)[C@@H](O)[C@]1(C)O [ERYTHROMYCIN ACISTRATE]
3. CCCN1C[C@H](CSC)C[C@@H]2c3cccc4[nH]cc(c34)C[C@H]21 [PERGOLIDE]
4. CNC(=C[N+](=O)[O-])NCCSCc1ccc(CN(C)C)o1
5. Nc1ccn([C@H]2CC[C@@H](CO)O2)c(=O)n1

1. < 4
2. >= 4
3. < 4
4. >= 4
5. < 4

====

# Test system: Hepatotoxicity
# TEST_SUMMARY: FDA HLAED, serum glutamic oxaloacetic transaminase (SGOT) increase
# CONDITION_SET: human
For each of the compounds below, state its SGOT Increase - Index Value.

| COMPOUND | OBS_VALUE |
| --- | --- |
| C[C@H]1C[C@H]2[C@@H]3CCC4=CC(=O)C=C[C@]4(C)[C@@]3(F)[C@@H](O)C[C@]2(C)[C@@]1(O)C(=O)CCl [CLOBETASOL] | 0 |

For every item in the list below, what is its measured SGOT Increase - Index Value?
1. Cc1ccc(C)c(OCCCC(C)(C)C(=O)O)c1 [GEMFIBROZIL]
2. CC(=O)N(CC(O)CN(C(C)=O)c1c(I)c(C(=O)NCC(O)CO)c(I)c(C(=O)NCC(O)CO)c1I)c1c(I)c(C(=O)NCC(O)CO)c(I)c(C(=O)NCC(O)CO)c1I (configuration not stated) [IODIXANOL]

0
0
